- Subject Of Test: Gamma-secretase
- Protocol Notes: Modulatory activity of gamma secretase in human H4 cells overexpressing human APP695 K595N/M596L mutant assessed as decrease in amyloidbeta42 levels at 24 hrs by Alphalisa method
Property: IC50 (nM)

{"Molecule": "Cc1nnc(C23CC(Nc4nc5n(n4)CCCN5c4ccc(OC(F)(F)F)cc4)(C2)C3)o1", "Property": "IC50", "Measurement": 587}
{"Molecule": "Cc1cc(N2CC3CCC(C2)C3Nc2nc3n(n2)CCCC[C@H]3c2ccc(F)c(F)c2F)ncn1 (some centres undefined)", "Property": "IC50", "Measurement": 17}
{"Molecule": "Cc1nnc(-c2ccc(Nc3nc4n(n3)CCCN4c3ccc(OC(F)(F)F)cc3)cc2)o1", "Property": "IC50", "Measurement": 227}
{"Molecule": "Cc1nnc(C23CCC(Nc4nc5n(n4)CCCN5c4ccc(OC(F)(F)F)cc4)(CC2)CC3)o1", "Property": "IC50", "Measurement": 21}
{"Molecule": "Cc1nnc(C23CCC(Nc4nc(Oc5cccc(Cl)c5)n(C(C)C)n4)(CC2)CC3)o1", "Property": "IC50", "Measurement": 118}

[A] Cc1nnc(C23CC(Nc4nc(Cc5ccc(Cl)cc5)cc(C(C)(C)O)n4)(C2)C3)o1
[B] Cc1nnc(C23CC(Nc4nc(Oc5cccc(Cl)c5)n(C(C)C)n4)(C2)C3)o1
Challenge: Which of the two items, A and B , has the greater recorded IC50? # respond with the chosen item's label
Response given: A

[1] Cc1nnc(C23CC(Nc4nc5n(n4)CCCN5c4cccc(Cl)c4)(C2)C3)o1
[2] Cc1nnc(-c2ccc(Nc3nc4n(n3)CCCN4c3cccc(Cl)c3)cc2)o1
Challenge: Quick one: lower IC50, 1 or 2 ? Output the label that corresponds to your choice.
Response given: 2
(2: 95 nM, 1: 777 nM)

---

- Protocol Notes: Distribution coefficient between 1-octanol and phosphate buffer, logD of the compound after 24 hrs by shake flask assay
- Assay type: physicochemical
- Condition Details: 1-octanol/phosphate buffer
Property: logD at 24 h

{"Compound": "Cc1nnc(N2CC3CCC(C2)C3Nc2nc(Cc3ccc(Cl)cc3)cc(C(C)(C)O)n2)o1 (centres undefined)", "logD at 24 h": 4}
{"Compound": "Cc1nnc(C23CC(Nc4nc(Cc5ccc(Cl)cc5)cc(C(C)(C)O)n4)(C2)C3)o1", "logD at 24 h": 4}
{"Compound": "Cc1nnc(C23CCC(Nc4nc5n(n4)CCCN5c4cccc(Cl)c4)(CC2)CC3)o1", "logD at 24 h": 3.1}

[I] Cc1nnc(C23CC(Nc4nc(Oc5cccc(Cl)c5)n(C(C)C)n4)(C2)C3)o1
[II] Cc1nnc(C23CC(Nc4nc5n(n4)CCCN5c4ccc(OC(F)(F)F)cc4)(C2)C3)o1
Challenge: For I and II , which recorded logD at 24 h is lower? Pick one and reply with its label.
Response given: II
(II: 2.8, I: 4.1)

---

- Protocol Notes: Solubility of compound in PBS buffer at pH 6.5 incubated for over night by HPLC-UV based LYSA assay
- Format: physicochemical
Property: solubility at 12 h (µg/mL)

Study these solved cases before continuing.
{"Molecule": "Cc1nnc(N2CC3CCC(C2)C3Nc2nc3n(n2)CCCN3c2ccc(OC(F)(F)F)cc2)o1 (stereo not drawn)", "Property": "solubility at 12 h", "U": "µg/mL", "Measurement": 106}
{"Molecule": "Cc1nnc(C23CCC(Nc4nc5n(n4)CCCN5c4cccc(Cl)c4)(CC2)CC3)o1", "Property": "solubility at 12 h", "U": "µg/mL", "Measurement": 132}
{"Molecule": "Cc1nnc(C23CC(Nc4nc(Oc5cccc(Cl)c5)n(C(C)C)n4)(C2)C3)o1", "Property": "solubility at 12 h", "U": "µg/mL", "Measurement": 88}

[1] Cc1nnc(C23CCC(Nc4nc5n(n4)CCCN5c4ccc(OC(F)(F)F)cc4)(CC2)CC3)o1
[2] Cc1cc(N2CC3CCC(C2)C3Nc2nc3n(n2)CCCC[C@H]3c2ccc(F)c(F)c2F)ncn1 (stereo partly drawn)
[3] Cc1cc(C23CC(Nc4nc5n(n4)CCCC[C@H]5c4ccc(F)c(F)c4F)(C2)C3)ncn1
Challenge: Falling order of solubility at 12 h, please. # respond with the labels, arranged in the requested order
Response given: 2, 3, 1

---

- Protocol Notes: Distribution coefficient between 1-octanol and phosphate buffer, logD of the compound after 24 hrs by shake flask assay
- Assay type: physicochemical
- Condition Details: 1-octanol/phosphate buffer
Property: logD at 24 h

{"Substance Smiles": "Cc1nnc(C23CCC(Nc4nc(Oc5cccc(Cl)c5)n(C(C)C)n4)(CC2)CC3)o1", "logD at 24 h": 4.1}
{"Substance Smiles": "Cc1cc(C23CC(Nc4nc5n(n4)CCCC[C@H]5c4ccc(F)c(F)c4F)(C2)C3)ncn1", "logD at 24 h": 3.8}

---

- Protocol Notes: Solubility of compound in PBS buffer at pH 6.5 incubated for over night by HPLC-UV based LYSA assay
- Type: physicochemical
Property: solubility at 12 h (µg/mL)

Some compounds with recorded solubility at 12 h:
{"Compound": "Cc1nnc(N2CC3CCC(C2)C3Nc2nc(Cc3ccc(Cl)cc3)cc(C(C)(C)O)n2)o1 (configuration not stated)", "Measurement": 18}
{"Compound": "Cc1nnc(C23CC(Nc4nc(Cc5ccc(Cl)cc5)cc(C(C)(C)O)n4)(C2)C3)o1", "Measurement": 11}
{"Compound": "Cc1nnc(N2CC3CCC(C2)C3Nc2nc3n(n2)CCCN3c2cccc(Cl)c2)o1 (configuration not stated)", "Measurement": 233}
{"Compound": "Cc1nnc(C23CC(Nc4nc5n(n4)CCCN5c4cccc(Cl)c4)(C2)C3)o1", "Measurement": 167}

[1] Cc1nnc(N2CC3CCC(C2)C3Nc2nc(Oc3cccc(Cl)c3)n(C(C)C)n2)o1 (configuration not stated)
[2] Cc1nnc(C23CC(Nc4nc5n(n4)CCCN5c4ccc(OC(F)(F)F)cc4)(C2)C3)o1
[3] Cc1nnc(C23CCC(Nc4nc(Oc5cccc(Cl)c5)n(C(C)C)n4)(CC2)CC3)o1
Challenge: List from greatest to least solubility at 12 h. Output spec: labels arranged per the requested ranking.
Response given: 1, 3, 2
(1: 104 µg/mL, 3: 15 µg/mL, 2: 3.2 µg/mL)
